# Tested on: PPARg homodimer (NR concentration 180 nM)
# assay_explanation: PBM binding z-score (relative to random genomic background probes); higher = stronger binding; sequences stand for … in GC…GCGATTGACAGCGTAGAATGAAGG
measurement_label: PBM binding z-score

Sample answers from the record:
ATATGTAGGTTACATCCGGGCCATTCAGGCTATG: 0.583
TTACCAAGATGAAAGGTCGTTGATGCACGCCTTG: 1.13
ACTTACGGGTCAACGAGGTGATAGCACGCGTATA: 2.44

# PBM binding z-score lookup, item `TCATGTAGGTAAACAGGTGAAAGTCCGTAAGTTA`
1.08

Same again, this time with `AGACCAAGGTGATCGTGAGGTCGTTGATACTAAC`
0.38

Thanks! And `TCTATTAGTTGAAGGGTAACCGACGAGTCCGTTT` ?
1.56

// query: `GCTTGTAGATCACGGTTAAGAAAGACTAAGCTAA`
0.0431

* * *

Item-by-item account of PBM binding z-score
# System: LXRb homodimer (NR concentration 270 nM)
# assay_explanation: PBM binding z-score (relative to random genomic background probes); higher = stronger binding; sequences stand for … in GC…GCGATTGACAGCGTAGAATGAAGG
Write the value as a bare number.

CAGCCTAGGTCAGGACCAGTATAGGAGGAACGTT: -0.972
CTACCAAGGTGAACTAGGTCGTTGATTACTATTC: -0.516
GGAATGAGGGCAAAGTTGATAGCATCTGTCGACG: -0.0126
CGAACGAGGGCATGAGTTGATTGCAAATGCCGAT: -0.873
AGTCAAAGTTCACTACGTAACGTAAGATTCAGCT: 1.32

Quick one: PBM binding z-score for `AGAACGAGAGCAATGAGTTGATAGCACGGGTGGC` ?
-0.725

Same read-out for `CCTAGTTGGTCAAGGTTACACACGCTATAGGTAC` ?
0.618

// query: `CAAACTAGGTCACGGTCAAAGTCGGTTTGTGCCA`
0.506

Would you mind doing `CCTTACGGGTCACTCACAGGTTATAGCATTTGGA` as well?
0.243

Also need `CGTCCTAGGTCAAGGTCAGTGAAAGAGACTCGAA` , thanks.
0.178

What about this sequence? `CCTACTGGGCCAATCAGAGGTCATTGATCATATG`
0.545

Moving on to `TCATATAGGTAAACAGGAGAAAGTCCGTAAGTTA`
-0.116

* * *

PBM binding z-score values, listed per item
# Tested on: PPARg:RXRa IVT, anti-PPARg (NR concentration 270 nM, RXRa partner concentration 90 nM)
# assay_explanation: PBM binding z-score (relative to random genomic background probes); higher = stronger binding; sequences stand for … in GC…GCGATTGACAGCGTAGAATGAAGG
# respond with the number and nothing more

Recorded PBM binding z-score for `CGTCCAAGGTCAGCAGGTCAGTTAAAGCGACGTG` , please?
3.71

Quick one: `GCGACTGGGGCAAAGCGGGTTACCATAAGGTTGG`
3.67

Same question for `CCTGATAGGTCAATGGTCAGCTAAAGCAGCTCGC` please.
3.31

How about `CCTAGCAGGCCAGGGACACTCAAGCATTTCGCTT` ?
-0.258

Same question, `TAGCCTAGATCATGGGCCAGTATACCACGCGAAC` this time
0.69

// query: `CGAACCAGGTCATTGACAGGACAGTGAATAGTAA`
5.01

Another: `GGAACGCGGGCAAGTTGATAGCAGAGTTTGATGG`
-0.448
